- System: Acinetobacter baumannii DSM 30008
- Format: cell-based
- conditions: DSM 30008
Where a SMILES comes first, the peptide text is derived from it. Bridges are numbered along the chain shown (N, C = ends). [ ]: non-standard residue; d: D form. Tle = CC(C)(C)[C@H](N)C(=O)O; dDab = NCC[C@@H](N)C(=O)O; Orn = NCCC[C@H](N)C(=O)O; Dab = NCC[C@H](N)C(=O)O; Dap = NC[C@H](N)C(=O)O
assay readout: Acinetobacter baumannii DSM 30008 MIC
Kindly write the number and append the unit.

compound	Acinetobacter baumannii DSM 30008 MIC
CC(C)[C@@H]1NC(=O)[C@@H]2CCCN2C(=O)[C@@H](C)NC(=O)[C@H](CO)NC(=O)[C@@H]2CC(=O)NCC[C@H](NC1=O)C(=O)N[C@@H](Cc1ccc(O)cc1)C(=O)N[C@@H](CCN)C(=O)N[C@@H](CN)C(=O)N[C@H](CCN)C(=O)N[C@@H](CCN)C(=O)N[C@@H](Cc1c[nH]c3ccccc13)C(=O)N[C@@H](CCN)C(=O)N[C@@H](C(C)(C)C)C(=O)N2 [Example 27] (cyclo(DS[dA]PV[Dab]Y[Dab][Dap][dDab][Dab]W[Dab][Tle]); lactam 1-6)	1 mg/L

Per the record, CC(C)C[C@@H]1NC(=O)[C@H](CCCNC(=N)N)NC(=O)[C@@H](CCN)NC(=O)[C@H](C(C)C)NC(=O)[C@@H]2CSSC[C@H](NC1=O)C(=O)N[C@@H](Cc1ccc(O)cc1)C(=O)N[C@@H](CN)C(=O)N[C@@H](CCCN)C(=O)N[C@H](CCN)C(=O)N[C@@H](CCN)C(=O)N[C@@H](Cc1c[nH]c3ccccc13)C(=O)N[C@@H](CO)C(=O)N[C@@H](Cc1ccc(O)cc1)C(=O)N2 [Example 72] (cyclo(CV[dDab]RLCY[Dap][Orn][dDab][Dab]WSY); disulfide 1-6) has Acinetobacter baumannii DSM 30008 MIC of 0.625 mg/L

---

Each entry below lists one item and its recorded Acinetobacter baumannii DSM 30008 MIC value.
- Test system: Acinetobacter baumannii DSM 30008
- Assay type: cell-based
- conditions: DSM 30008
Where a SMILES comes first, the peptide text is derived from it. Bridges are numbered along the chain shown (N, C = ends). Triazole bridges read from a SMILES are 1,4-linked. [ ]: non-standard residue; d: D form. Aha = [N-]=[N+]=NCC[C@H](N)C(=O)O; dPen = CC(C)(S)[C@@H](N)C(=O)O; Chg = N[C@H](C(=O)O)C1CCCCC1; Tle = CC(C)(C)[C@H](N)C(=O)O; dDab = NCC[C@@H](N)C(=O)O; NMeA = CN[C@@H](C)C(=O)O; Orn = NCCC[C@H](N)C(=O)O; Pra = C#CC[C@H](N)C(=O)O; Dab = NCC[C@H](N)C(=O)O; Dap = NC[C@H](N)C(=O)O
Note: unit µg/mL is implicit; provide only the numeric part.

Examples from the recorded data:
compound	unit text	recorded number
CC(C)C[C@@H]1NC(=O)[C@@H]2CCCN2C(=O)[C@@H](CCN)NC(=O)[C@H](CO)NC(=O)[C@H](C(C)C)NC(=O)[C@H](C(C)(C)C)NC(=O)[C@@H]2CC(=O)NCC[C@H](NC(=O)[C@H](Cc3ccc(O)cc3)NC(=O)[C@H](Cc3ccc(O)cc3)NC1=O)C(=O)N[C@@H](CCCN)C(=O)N[C@H](CCN)C(=O)N[C@@H](CCN)C(=O)N[C@@H](Cc1c[nH]c3ccccc13)C(=O)N2 [Example 41] (cyclo(D[Tle]VS[dDab]PLYY[Dab][Orn][dDab][Dab]W); lactam 1-10)	µg/mL	2
CC(C)[C@@H]1NC(=O)[C@@H]2CCCN2C(=O)[C@H]2CCCN2C(=O)[C@H](CO)NC(=O)[C@@H]2CCn3cc(nn3)C[C@H](NC1=O)C(=O)N[C@@H](Cc1ccc(O)cc1)C(=O)N[C@@H](CCN)C(=O)N[C@@H](CN)C(=O)N[C@H](CCN)C(=O)N[C@@H](CCN)C(=O)N[C@@H](Cc1c[nH]c3ccccc13)C(=O)N[C@@H](CCN)C(=O)N[C@@H](C(C)(C)C)C(=O)N2 [Example 34] (cyclo(V[Pra]Y[Dab][Dap][dDab][Dab]W[Dab][Tle][Aha]S[dP]P); triazole 2-11)	µg/mL	4
CC(C)C[C@@H]1NC(=O)[C@H](CCCNC(=N)N)NC(=O)[C@@H](CCN)NC(=O)[C@H]([C@@H](C)O)NC(=O)[C@@H]2CCNC(=O)C[C@H](NC1=O)C(=O)N[C@@H](Cc1ccc(O)cc1)C(=O)N[C@@H](CC(N)=O)C(=O)N[C@@H](CCCN)C(=O)N[C@H](CCN)C(=O)N[C@@H](CCN)C(=O)N[C@@H](Cc1c[nH]c3ccccc13)C(=O)N[C@@H](CO)C(=O)N[C@@H](C(C)(C)C)C(=O)N2 [Example 75] (cyclo(LDYN[Orn][dDab][Dab]WS[Tle][Dab]T[dDab]R); lactam 2-11)	µg/mL	1.5
CC[C@H](C)[C@@H]1NC(=O)[C@H](C)NC(=O)[C@@H](CCN)NC(=O)[C@H](CO)NC(=O)[C@@H]2CSSC[C@H](NC1=O)C(=O)N[C@@H](Cc1ccc(O)cc1)C(=O)N[C@@H](CCN)C(=O)N[C@@H](CCCN)C(=O)N[C@H](CCN)C(=O)N[C@@H](CCN)C(=O)N[C@@H](Cc1c[nH]c3ccccc13)C(=O)N[C@@H](CCN)C(=O)N[C@@H](C(C)(C)C)C(=O)N2 [Example 13] (cyclo(AICY[Dab][Orn][dDab][Dab]W[Dab][Tle]CS[dDab]); disulfide 3-12)	µg/mL	2
CC(C)C[C@@H]1NC(=O)[C@H](CN)NC(=O)[C@@H](CCN)NC(=O)[C@H](C(C)C)NC(=O)[C@@H]2CSSC[C@H](NC1=O)C(=O)N[C@@H](Cc1ccc(O)cc1)C(=O)N[C@@H](CC(N)=O)C(=O)N[C@@H](CCCN)C(=O)N[C@H](CCN)C(=O)N[C@@H](CCN)C(=O)N[C@@H](Cc1c[nH]c3ccccc13)C(=O)N[C@@H](CO)C(=O)N[C@@H](Cc1ccc(O)cc1)C(=O)N2 [Example 68] (cyclo(CV[dDab][Dap]LCYN[Orn][dDab][Dab]WSY); disulfide 1-6)	µg/mL	1.25
CC(C)[C@@H]1NC(=O)[C@H](C)N(C)C(=O)[C@H]2CCCN2C(=O)[C@H](CO)NC(=O)[C@H](C)NC(=O)[C@H](C(C)(C)C)NC(=O)[C@H](CCN)NC(=O)[C@H](Cc2c[nH]c3ccccc23)NC(=O)[C@H](CCN)NC(=O)[C@@H](CCN)NC(=O)[C@H](CN)NC(=O)[C@H](CCN)NC(=O)[C@H](Cc2ccc(O)cc2)NC(=O)[C@H](CO)NC1=O [Example 44] (cyclo(AS[dP][NMeA]VSY[Dab][Dap][dDab][Dab]W[Dab][Tle]))	µg/mL	2

Per the record, C[C@@H]1NC(=O)[C@H](C(C)(C)C)NC(=O)[C@H](CCN)NC(=O)[C@H](Cc2c[nH]c3ccccc23)NC(=O)[C@H](CCN)NC(=O)[C@@H](CCN)NC(=O)[C@H](CCCN)NC(=O)[C@H](CCN)NC(=O)[C@H](Cc2ccc(O)cc2)NC(=O)[C@H](CN)NC(=O)[C@H](Cc2ccccc2)NC(=O)[C@@H]2CCCN2C(=O)[C@@H](CCN)NC(=O)[C@H](CO)NC1=O [Example 50] (cyclo(AS[dDab]PF[Dap]Y[Dab][Orn][dDab][Dab]W[Dab][Tle])) has Acinetobacter baumannii DSM 30008 MIC of 2

Per the record, CC[C@H](C)[C@@H]1NC(=O)[C@@H]2CCCN2C(=O)[C@@H](CCN)NC(=O)[C@H](CO)NC(=O)[C@H](C)NC(=O)[C@H](C(C)(C)C)NC(=O)[C@H](CCN)NC(=O)[C@H](Cc2c[nH]c3ccccc23)NC(=O)[C@H](CCN)NC(=O)[C@@H](CCN)NC(=O)[C@H](CCCN)NC(=O)[C@H](CCN)NC(=O)[C@H](Cc2ccc(O)cc2)NC(=O)[C@H]([C@@H](C)O)NC1=O [Example 48] (cyclo(AS[dDab]PITY[Dab][Orn][dDab][Dab]W[Dab][Tle])) has Acinetobacter baumannii DSM 30008 MIC of 8

Per the record, CC(C)C[C@@H]1NC(=O)[C@@H]2CCCN2C(=O)[C@H]2CCCN2C(=O)[C@H](CO)NC(=O)[C@@H]2NC(=O)[C@H](C3CCCCC3)NC(=O)[C@H](CCN)NC(=O)[C@H](Cc3c[nH]c4ccccc34)NC(=O)[C@H](CCN)NC(=O)[C@@H](CCN)NC(=O)[C@H](CCCN)NC(=O)[C@H](CCN)NC(=O)[C@H](C(C)(C)C)NC(=O)[C@H](NC1=O)C(C)(C)SSC2(C)C [Example 33] (cyclo(L[dPen][Tle][Dab][Orn][dDab][Dab]W[Dab][Chg][dPen]S[dP]P); disulfide 2-11) has Acinetobacter baumannii DSM 30008 MIC of 1

Just for reference, patent US11753446B2 is where these values come from.
